Experimental System: KRAS-G12D (Homo sapiens, UniProt P01116, G12D)
Sequence (P01116 with tags, fused parts or gaps isoform P01116-2 G12D): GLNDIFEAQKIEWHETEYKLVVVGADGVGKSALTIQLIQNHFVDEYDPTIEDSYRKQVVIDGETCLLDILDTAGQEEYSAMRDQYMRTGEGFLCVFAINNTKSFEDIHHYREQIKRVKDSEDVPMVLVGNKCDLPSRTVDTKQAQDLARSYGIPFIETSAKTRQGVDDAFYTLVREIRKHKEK
Assay Method Text: SOS-catalyzed nucleotide exchange assay (Procedure A, TR-FRET), KRAS-G12D
Format: biochemical
Condition: nucleotide exchange, read-out: KRAS G12D GNE IC50
Metric Name: IC50 (nM)
Report the value in nM with no unit label.

CCC1c2c(cc3[nH]ncc3c2-c2nccc3c2sc2nc(OC[C@@]45CCCN4C[C@H](F)C5)nc(N4CCOC[C@@](C)(O)C4)c23)CC1(F)F (single isomer, unassigned)    1.52
C[C@@]1(O)COCCN(c2nc(OC[C@@]34CCCN3C[C@H](F)C4)nc3sc4c(-c5c(C6(F)CC6)c(F)cc6[nH]ncc56)nccc4c23)C1    26.4

Find the recorded IC50 belonging to C[C@@]1(O)COCCN(c2nc(OC[C@@]34CCCN3C[C@H](F)C4)nc3sc4c(-c5cccc6c5CC5CC65)nccc4c23)C1 (single isomer, unassigned) and report it.
230

Bench note: what IC50 did Cc1cc2[nH]ncc2c(-c2nccc3c2sc2nc(OC[C@@]45CCCN4C[C@H](F)C5)nc(N4CCOC(CO)C4)c23)c1C(F)(F)F (stereo partly drawn) show?
2270

// query IC50 value for entry C=C1CN2C[C@@H](OC)C[C@@]2(COc2nc(N3CCOC[C@@](C)(O)C3)c3c(n2)sc2c(-c4c(C5CC5)c(Cl)cc5[nH]ncc45)nccc23)C1
6.56

----------
Experimental System: KRAS-G12C (C51S/C80L/C118S) (Homo sapiens, UniProt P01116, C118S/C51S/C80L/G12C)
Sequence (P01116 with tags, fused parts or gaps isoform P01116-2 G12C/C51S/C80L/C118S): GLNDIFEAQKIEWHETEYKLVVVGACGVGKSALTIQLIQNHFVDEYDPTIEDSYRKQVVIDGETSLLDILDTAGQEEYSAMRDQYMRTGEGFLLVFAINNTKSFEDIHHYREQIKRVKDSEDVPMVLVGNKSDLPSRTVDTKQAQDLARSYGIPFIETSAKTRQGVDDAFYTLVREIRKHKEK
Assay Method Text: SOS-catalyzed nucleotide exchange assay (Procedure A, TR-FRET), KRAS-G12C
Type: biochemical
Condition: nucleotide exchange, Procedure A; read-out: KRAS G12C GNE IC50
pIC50: −log10 of the molar value.
Label 1 when pIC50 is at or above 7; otherwise label -1.

C=C(F)c1c(C(F)(F)F)cc2[nH]ncc2c1-c1nccc2c1sc1nc(OC[C@@]34CCCN3C[C@H](F)C4)nc(N3CCOC[C@@](C)(O)C3)c12    1
C#Cc1cc(F)cc2cc3[nH]ncc3c(-c3nccc4c3sc3nc(OC[C@@]56CCCN5C[C@H](F)C6)nc(N5CCOC[C@@](C)(O)C5)c34)c12    1
Cc1cc2[nH]ncc2c(-c2nccc3c2sc2nc(OC[C@@]45CCCN4C[C@H](F)C5)nc(N4CCCC5(CNC(=O)C5)C4)c23)c1C(F)(F)F (stereo partly drawn)    -1
C[C@@]1(O)COCCN(c2nc(OC[C@@]34CCCN3C[C@H](F)C4)nc3sc4c(-c5c(-c6cccs6)c(Cl)cc6[nH]ncc56)nccc4c23)C1    1
Cc1cc2[nH]ncc2c(-c2nccc3c4c(N5CCOCC(O)C5)nc(OC[C@@]56CCCN5C[C@H](F)C6)nc4n(C)c23)c1C(F)(F)F (single isomer, unassigned)    -1
C[C@@]1(O)COCCN(c2nc(OC[C@@]34CCCN3C/C(=C/F)C4)nc3sc4c(-c5c(C6CC6)c(Cl)cc6[nH]ncc56)nccc4c23)C1    1
Cc1cc2[nH]ncc2c(-c2cncc3c2sc2nc(OC[C@@]45CCCN4C[C@H](F)C5)nc(N4CCOC[C@@](C)(O)C4)c23)c1C(F)(F)F    -1
C[C@@]1(O)COCCN(c2nc(OC[C@@]34CCCN3C[C@H](F)C4)nc3sc4c(-c5c(C6CC6)c(C(F)(F)F)cc6[nH]ncc56)nccc4c23)C1    1
C#Cc1c(C)cc2[nH]ncc2c1-c1nccc2c1sc1nc(OC[C@@]34CCCN3C[C@H](F)C4)nc(N3CCOC[C@@](C)(O)C3)c12    1
Cc1n[nH]c2cc(Cl)c(C(F)F)c(-c3nccc4c5c(N6CCOC[C@@](C)(O)C6)nc(OC[C@@]67CCCN6C[C@H](F)C7)nc5n(C)c34)c12 (single isomer, unassigned)    -1

As a next step, examine the molecule that follows.
Does pIC50 meet or surpass 7 for CCC1c2c(cc3[nH]ncc3c2-c2nccc3c2sc2nc(OC[C@@]45CCCN4C/C(=C\F)C5)nc(N4CCOC[C@@](C)(O)C4)c23)CC1(F)F (single isomer, unassigned) ?
1
